System: MES-SA
Experiment: relative viability vs DMSO control (72 h) (fraction); higher = more viable cells
Conditions: 10 µM
Label key: Fulfilled means relative viability under 0.4; Not fulfilled means relative viability of 0.4 or more.

1) CNC(=O)c1c(C)oc2cc(Oc3ncnc4cc(OC)c(OC)cc34)ccc12 [Fruquintinib]	Not fulfilled

Incoming: Please state whether relative viability is below 0.4 for CS(=O)(=O)CCNCc1ccc(-c2ccc3ncnc(Nc4ccc(OCc5cccc(F)c5)c(Cl)c4)c3c2)o1 [Lapatinib]
Outgoing: Fulfilled

Incoming: Now the same for CC(=O)c1c(C)c2cnc(Nc3ccc(N4CCNCC4)cn3)nc2n(C2CCCC2)c1=O [Palbociclib]
Outgoing: Fulfilled

Incoming: Now the same for O=C(c1ccc(F)c(F)c1Nc1ccc(I)cc1F)N1CC(O)([C@@H]2CCCCN2)C1 [Cobimetinib]
Outgoing: Fulfilled

Incoming: Now the same for COC(=O)c1ccc2c(c1)NC(=O)/C2=C(\Nc1ccc(N(C)C(=O)CN2CCN(C)CC2)cc1)c1ccccc1 [Nintedanib]
Outgoing: Not fulfilled
